assay: Cmax in Sprague-Dawley rat at 50 mg/kg, po; assay type: ADME, organism-based; set-up: dose 50 mg/kg, route oral; conditions: in vivo
OBSERVABLE: Cmax (ng/mL)

chemical_string=CCN(C)C(=O)c1ccc(-c2ccc3c(n2)Oc2ccccc2[C@@H]3C(C)(C)C(=O)Nc2nncs2)cc1F result=3080
chemical_string=CN(C)C(=O)c1ccc(-c2ccc3c(n2)Oc2ccccc2[C@H]3C(C)(C)C(=O)Nc2nncs2)cc1F result=3210

====

assay: AUC in Sprague-Dawley rat at 10 mg/kg, po; assay type: ADME, organism-based; design: dose 10 mg/kg, route oral; settings: plasma
OBSERVABLE: AUC (ng·h/mL)

chemical_string=CCN(C)C(=O)c1ccc(-c2ccc3c(n2)Oc2ccccc2[C@@H]3C(C)(C)C(=O)Nc2nncs2)cc1F result=904
chemical_string=CN(C)C(=O)c1ccc(-c2ccc3c(n2)Oc2ccccc2[C@H]3C(C)(C)C(=O)Nc2nncs2)cc1F result=673

====

assay: Clearance in Sprague-Dawley rat at 1 mg/kg, iv; assay type: ADME, organism-based; design: dose 1 mg/kg, route intravenous; conditions: in vivo
OBSERVABLE: clearance (mL/min/kg)

a: CCN(C)C(=O)c1ccc(-c2ccc3c(n2)Oc2ccccc2[C@@H]3C(C)(C)C(=O)Nc2nncs2)cc1F
b: CN(C)C(=O)c1ccc(-c2ccc3c(n2)Oc2ccccc2[C@H]3C(C)(C)C(=O)Nc2nncs2)cc1F
Two entries are listed, a and b . Which one carries the higher clearance? Indicate which entry you chose by stating its label.
b
(b: 49.5 mL/min/kg, a: 34 mL/min/kg)

====

Target protein (sequence): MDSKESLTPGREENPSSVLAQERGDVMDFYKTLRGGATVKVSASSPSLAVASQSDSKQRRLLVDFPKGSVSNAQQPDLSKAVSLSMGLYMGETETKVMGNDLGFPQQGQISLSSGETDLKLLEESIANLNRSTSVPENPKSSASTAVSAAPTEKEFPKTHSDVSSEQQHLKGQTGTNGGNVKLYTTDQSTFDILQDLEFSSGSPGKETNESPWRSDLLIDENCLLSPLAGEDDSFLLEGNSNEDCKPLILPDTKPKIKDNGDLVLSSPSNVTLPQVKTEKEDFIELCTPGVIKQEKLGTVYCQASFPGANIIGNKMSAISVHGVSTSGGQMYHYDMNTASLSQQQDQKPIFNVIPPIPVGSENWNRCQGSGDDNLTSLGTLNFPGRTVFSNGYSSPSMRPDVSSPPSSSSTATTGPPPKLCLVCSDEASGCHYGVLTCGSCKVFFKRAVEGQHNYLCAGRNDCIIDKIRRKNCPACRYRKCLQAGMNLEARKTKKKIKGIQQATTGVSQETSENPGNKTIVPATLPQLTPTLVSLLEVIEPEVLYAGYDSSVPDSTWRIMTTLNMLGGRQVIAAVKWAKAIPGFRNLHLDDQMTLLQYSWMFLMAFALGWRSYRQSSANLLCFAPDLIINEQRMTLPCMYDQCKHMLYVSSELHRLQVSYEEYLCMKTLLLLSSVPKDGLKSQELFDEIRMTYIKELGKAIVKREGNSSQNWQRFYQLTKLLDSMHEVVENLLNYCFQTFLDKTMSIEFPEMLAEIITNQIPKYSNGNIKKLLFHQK
OBSERVABLE: Ki (nM)

chemical_string=CC(C)(C(=O)Nc1nncs1)[C@H]1c2ccccc2Oc2nc(-c3ccc(C(=O)N4CCCCC4)c(F)c3)ccc21 observable=Ki result=1.68
chemical_string=CC(C)(C(=O)Nc1nncs1)[C@H]1c2ccccc2Oc2nc(-c3ccc(C(=O)N4CCOCC4)c(F)c3)ccc21 observable=Ki result=2.7
chemical_string=CCN(C)C(=O)c1ccc(-c2ccc3c(n2)Oc2ccccc2[C@@H]3C(C)(C)C(=O)Nc2nncs2)cc1F observable=Ki result=1.64
chemical_string=CCCc1ccc(-c2ccc3c(n2)Oc2ccccc2[C@H]3C(C)(C)C(=O)Nc2nncs2)cc1 observable=Ki result=2.4
chemical_string=CC(C)(C(=O)Nc1nncs1)[C@H]1c2ccccc2Oc2nc(-c3ccc(C(=O)N4CCCC4)c(F)c3)ccc21 observable=Ki result=1.96

====

molecular target: UniProt:P04150; test: Transrepression activity at glucocorticoid receptor alpha in phorbol myristate acetate-stimulated human A549 cells assessed as inhibition of AP1 response element by luciferase reporter gene assay; type: cell-based
OBSERVABLE: EC50 (nM)

Consider the reported EC50 for these compounds:
chemical_string=CC(=O)c1ccc(-c2ccc3c(n2)Oc2ccccc2[C@@H]3C(C)(C)C(=O)Nc2nncs2)cc1 target_or_test_system=UniProt:P04150 observable=EC50 result=6.2
chemical_string=CC(C)(C(=O)Nc1nncs1)[C@H]1c2ccccc2Oc2nc(-c3ccc(C(=O)N4CCC(F)(F)C4)c(F)c3)ccc21 target_or_test_system=UniProt:P04150 observable=EC50 result=37.9
chemical_string=CC(C)(C(=O)Nc1nncs1)[C@H]1c2ccccc2Oc2nc(-c3ccc(C(=O)N4CCCC4)c(F)c3)ccc21 target_or_test_system=UniProt:P04150 observable=EC50 result=25

a: CC(C)Oc1ccc(-c2ccc3c(n2)Oc2ccccc2[C@@H]3C(C)(C)C(=O)Nc2nncs2)cc1F
b: COc1ccc(-c2ccc3c(n2)Oc2ccccc2[C@@H]3C(C)(C)C(=O)Nc2nncs2)cc1
c: CC(C)(C(=O)Nc1nncs1)[C@H]1c2ccccc2Oc2nc(-c3ccc(C(=O)N4CCOCC4)cc3)ccc21
// ranking: key=EC50, reverse=True Show the ranking through the labels, in the order asked for.
a, b, c
(a: 47 nM, b: 28.3 nM, c: 12.4 nM)

====

Entries and their EC50 values follow.
target: Glucocorticoid receptor (Homo sapiens); test: Transactivation activity at GR-alpha in human NP1 Hela cells assessed as induction of GAL4-DBD after 20 hrs by luciferase reporter gene assay; assay type: cell-based

Record excerpt, results attached:
chemical_string=Cc1cccc(-c2ccc3c(n2)Oc2ccccc2[C@@H]3C(C)(C)C(=O)Nc2nncs2)c1 target_or_test_system="Glucocorticoid receptor (Homo sapiens)" result="> 10 µM"
chemical_string=CC(C)(C(=O)Nc1nncs1)[C@H]1c2ccccc2Oc2nc(-c3ccc(C(=O)O)cc3)ccc21 target_or_test_system="Glucocorticoid receptor (Homo sapiens)" result="> 10 µM"
chemical_string=CC(=O)c1ccc(-c2ccc3c(n2)Oc2ccccc2[C@@H]3C(C)(C)C(=O)Nc2nncs2)cc1F target_or_test_system="Glucocorticoid receptor (Homo sapiens)" result="> 10 µM"
chemical_string=CC(C)(C(=O)Nc1nncs1)[C@H]1c2ccccc2Oc2nc(-c3ccccc3)ccc21 target_or_test_system="Glucocorticoid receptor (Homo sapiens)" result="> 10 µM"
chemical_string=CC(C)(C(=O)Nc1nncs1)[C@H]1c2ccccc2Oc2nc(-c3ccc(C(N)=O)cc3)ccc21 target_or_test_system="Glucocorticoid receptor (Homo sapiens)" result="> 10 µM"
chemical_string=CN(C)C(=O)c1ccc(-c2ccc3c(n2)Oc2ccccc2[C@H]3C(C)(C)C(=O)Nc2nncs2)cc1 target_or_test_system="Glucocorticoid receptor (Homo sapiens)" result="> 10 µM"

Specify EC50 for COc1ccc(-c2ccc3c(n2)Oc2ccccc2[C@H]3C(C)(C)C(=O)Nc2nncs2)cc1 and stop.
> 10 µM

====

Target: Glucocorticoid receptor (Homo sapiens)
Sequence (P04150 whole entry): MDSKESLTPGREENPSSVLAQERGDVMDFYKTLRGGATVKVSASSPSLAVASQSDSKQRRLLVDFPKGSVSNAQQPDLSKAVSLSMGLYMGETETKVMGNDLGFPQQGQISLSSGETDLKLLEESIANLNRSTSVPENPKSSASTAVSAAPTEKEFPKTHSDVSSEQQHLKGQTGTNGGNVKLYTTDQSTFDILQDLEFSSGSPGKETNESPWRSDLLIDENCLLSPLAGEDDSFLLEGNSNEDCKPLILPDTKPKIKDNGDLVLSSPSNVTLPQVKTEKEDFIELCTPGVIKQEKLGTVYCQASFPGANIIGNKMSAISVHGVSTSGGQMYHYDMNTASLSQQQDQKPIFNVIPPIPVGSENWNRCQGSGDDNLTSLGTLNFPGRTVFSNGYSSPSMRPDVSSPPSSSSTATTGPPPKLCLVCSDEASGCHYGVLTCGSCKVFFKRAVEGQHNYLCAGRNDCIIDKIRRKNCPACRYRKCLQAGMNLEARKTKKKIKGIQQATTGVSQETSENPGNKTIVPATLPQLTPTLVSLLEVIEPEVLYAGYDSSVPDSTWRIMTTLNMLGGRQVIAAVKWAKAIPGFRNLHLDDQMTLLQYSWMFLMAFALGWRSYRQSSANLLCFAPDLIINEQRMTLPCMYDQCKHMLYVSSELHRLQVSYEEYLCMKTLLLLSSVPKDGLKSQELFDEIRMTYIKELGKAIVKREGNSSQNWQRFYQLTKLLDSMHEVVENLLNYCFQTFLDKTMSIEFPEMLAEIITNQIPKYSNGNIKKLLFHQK
Experiment: Transactivation activity at GR-alpha in human NP1 Hela cells assessed as inhibition of GAL4-DBD after 20 hrs by luciferase reporter gene assay
Format: cell-based
pEC50: −log10 of the molar value.
OBSERVABLE: pEC50

compound=CCN(C)C(=O)c1ccc(-c2ccc3c(n2)Oc2ccccc2[C@H]3C(C)(C)C(=O)Nc2nncs2)cc1 target_or_test_system="Glucocorticoid receptor (Homo sapiens)" result=7.44
compound=COc1ccc(-c2ccc3c(n2)Oc2ccccc2[C@@H]3C(C)(C)C(=O)Nc2nncs2)cc1 target_or_test_system="Glucocorticoid receptor (Homo sapiens)" result=6.98
compound=CC(C)(C(=O)Nc1nncs1)[C@@H]1c2ccccc2Oc2nc(-c3ccc(O)cc3)ccc21 target_or_test_system="Glucocorticoid receptor (Homo sapiens)" result=6.70

A: CN(C)C(=O)c1ccc(-c2ccc3c(n2)Oc2ccccc2[C@@H]3C(C)(C)C(=O)Nc2nncs2)cc1
B: Cc1ccc(-c2ccc3c(n2)Oc2ccccc2[C@@H]3C(C)(C)C(=O)Nc2nncs2)cc1
C: CN(C)C(=O)c1cnc(-c2ccc3c(c2)Oc2ccccc2C3C(C)(C)C(=O)Nc2nncs2)nc1 (racemic)
D: CC(C)Oc1ccc(-c2ccc3c(n2)Oc2ccccc2[C@@H]3C(C)(C)C(=O)Nc2nncs2)cc1F
Exam item: list the entries in increasing order of pEC50. Sort the labels as requested; that list is your answer.
C, B, D, A
(C: 6.23, B: 6.59, D: 6.79, A: 7.37)
